Experiment: Cytotoxicity against African green monkey Vero cells assessed as cell survival at 0.4 ug/ml after 72 hrs by MTS-PMS assay
Type: cell-based
Settings: chlorocebus sabaeus, read-out: Survival
testReadout: viability at 72 h, 0.4 ug/ml (%)
Value expressed in %; do not type the unit.

Record CC(=O)/C(C)=N/OCc1cc(=O)oc2cc(C)cc(C)c12 . Reported viability at 72 h, 0.4 ug/ml: 89

* * *

Test: Dissociation constant, pKa of the compound by potentiometric titration method
Format: physicochemical
testReadout: pKa
Output spec: single numeric token, no unit.

Some compounds with known pKa results, for comparison:
Record CC(=O)/C(C)=N/OCc1cc(=O)oc2ccc(C)cc12 . Reported pKa: 5.7

Record CC(=O)/C(C)=N/OCc1cc(=O)oc2cc(C)ccc12 . Reported pKa: 5.5

Record CC(=O)/C(C)=N/OCc1cc(=O)oc2c1ccc1ccccc12 . Reported pKa: 5.6

---
Record CC(=O)/C(C)=N/OCc1cc(=O)oc2ccc(Cl)cc12 . Reported pKa: 5.4

Record CC(=O)/C(C)=N/OCc1cc(=O)oc2ccc3ccccc3c12 . Reported pKa: 5.6

Record CC(=O)/C(C)=N/OCc1cc(=O)oc2c(C)c(C)ccc12 . Reported pKa: 5.5

Record CC(=O)/C(C)=N/OCc1cc(=O)oc2ccc(Br)cc12 . Reported pKa: 5.4

Record CC(=O)/C(C)=N/OCc1cc(=O)oc2cc(Cl)ccc12 . Reported pKa: 5.4

Record CC(=O)/C(C)=N/OCc1cc(=O)oc2cc(C)cc(C)c12 . Reported pKa: 5.5

Record COc1ccc2oc(=O)cc(CO/N=C(\C)C(C)=O)c2c1 . Reported pKa: 5.8

* * *

Assay: Cytotoxicity against African green monkey Vero cells assessed as cell survival at 1.9 ug/ml after 72 hrs by MTS-PMS assay
Format: cell-based
Details: chlorocebus sabaeus, read-out: Survival
testReadout: viability at 72 h, 1.9 ug/ml (%)
Value expressed in %; do not type the unit.

Record COc1ccc2oc(=O)cc(CO/N=C(\C)C(C)=O)c2c1 . Reported viability at 72 h, 1.9 ug/ml: 78

* * *

Assay: Cytotoxicity against African green monkey Vero cells assessed as cell survival at 0.9 ug/ml after 72 hrs by MTS-PMS assay
Format: cell-based
Conditions: chlorocebus sabaeus, read-out: Survival
testReadout: viability at 72 h, 0.9 ug/ml (%)
Value expressed in %; do not type the unit.

Record CC(=O)/C(C)=N/OCc1cc(=O)oc2c(C)c(C)ccc12 . Reported viability at 72 h, 0.9 ug/ml: 84

* * *

Test system: Calf thymus DNA
Test: Induction of calf thymus DNA cleavage at 5 uM by ethidium bromide based agarose gel electrophoresis method
Format: nucleic-acid assay
Details: Bos taurus
The source made the active and inactive calls. The rule behind the calls is not given here.
Would you mind answering with one of these outcomes? class 1 (active), class 0 (inactive)

A selection of reference data follows.
[ask] Entry CC(=O)/C(C)=N/OCc1cc(=O)oc2cc(C)ccc12 : call = ?
[reply] class 0

[ask] Entry CC(=O)/C(C)=N/OCc1cc(=O)oc2cc(C)cc(C)c12 : call = ?
[reply] class 1

[ask] Entry CC(=O)/C(C)=N/OCc1cc(=O)oc2c1ccc1ccccc12 : call = ?
[reply] class 0

[ask] Entry CC(=O)/C(C)=N/OCc1cc(=O)oc2cc(Cl)ccc12 : call = ?
[reply] class 0

[ask] Entry CC(=O)/C(C)=N/OCc1cc(=O)oc2c(C)c(C)ccc12 : call = ?
[reply] class 1

[ask] Entry CC(=O)/C(C)=N/OCc1cc(=O)oc2ccc(Br)cc12 : call = ?
[reply] class 1

---
[ask] Entry CC(=O)/C(C)=N/OCc1cc(=O)oc2ccc(C)cc12 : call = ?
[reply] class 1

[ask] Entry COc1ccc2oc(=O)cc(CO/N=C(\C)C(C)=O)c2c1 : call = ?
[reply] class 1

[ask] Entry CC(=O)/C(C)=N/OCc1cc(=O)oc2ccc(Cl)cc12 : call = ?
[reply] class 1

[ask] Entry CC(=O)/C(C)=N/OCc1cc(=O)oc2ccc3ccccc3c12 : call = ?
[reply] class 1
